- test-target: UniProt:P34972
- Sequence (P34972 whole entry): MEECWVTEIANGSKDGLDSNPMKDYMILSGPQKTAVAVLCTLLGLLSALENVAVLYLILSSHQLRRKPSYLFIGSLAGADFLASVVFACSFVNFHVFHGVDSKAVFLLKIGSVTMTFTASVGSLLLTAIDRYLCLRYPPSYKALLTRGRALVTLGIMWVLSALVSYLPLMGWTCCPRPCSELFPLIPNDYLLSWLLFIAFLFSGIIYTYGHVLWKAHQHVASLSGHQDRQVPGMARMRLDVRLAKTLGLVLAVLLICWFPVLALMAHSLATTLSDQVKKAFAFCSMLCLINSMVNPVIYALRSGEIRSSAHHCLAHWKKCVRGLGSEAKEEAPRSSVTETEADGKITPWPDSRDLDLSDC
- test-details: cAMP assay, CHO cells expressing human CB2 receptors
- Type: cell-based
- measurement-parameters: functional cAMP assay, CHO cells expressing human CB2; read-out: human CB2 EC50
Please provide measured EC50 for the entries that follow.
Lab book: enter the figure in nM, no units written.

The measured EC50 associated with `CC(C)(C)c1nc(N2CC[C@H](O)C2)c2cnn(Cc3nnnn3C3CC3)c2n1` reads 8.8

The measured EC50 associated with `CC(C)(C)c1nc(N2CCC(F)(F)C2)c2cnn(CC(=O)c3ccccn3)c2n1` reads 8.4

The measured EC50 associated with `CC(C)(C)c1nc(N2CCC(F)(F)C2)c2cnn(Cc3ccc(F)cc3Cl)c2n1` reads 5.9
